- Procedure Text: yeast display, Sf9 membrane polyspecificity reagent, FACS + sequencing; frameworks hold sequencing errors
Attribute Measured: polyreactivity (PSR sort gate)

[
  {
    "Record Sequence": "QVQLVESGRGLVQAGGSLRLSCAASGITFLDYAMGWYRQAPGKERELVAAITKSGGSTYYADSVKGRFTISRDNAKNTVFLQMNSLKPEDTAVYYCAKGRHPLWVEQPYEFDYWGQGTQVTVSS",
    "Value Reported": "low polyreactivity"
  },
  {
    "Record Sequence": "QVQLVESGGGLVQAGGSLRLSCAASGRIFERYAMGWYRQAPGKERELVAGISISGGGTYYADSVKGRFTISRDNAKNTVYLEMNSLKPEDTAVYYCAATFPREDYGYWGQGTQVTVSS",
    "Value Reported": "low polyreactivity"
  },
  {
    "Record Sequence": "QVQLVESGGGIVQAGGSLRLSCAASGRTFIRYTRGWYRQAPGKERELVGSIRYSGASTSYADSVKGRFTISRDNAKNTVYLQMNSLKPEDTAVYYCAARFGRYSHRYYYWGQGTQVTVSS",
    "Value Reported": "high polyreactivity"
  },
  {
    "Record Sequence": "QVQLVESGGGLVQAGGSLRLSCAASGRTFGQYTMGWYRQAPGKERELVAGITRSGSRTYYADSVKGRFTISRDNAKNTVYLQMNSLKPEDTAVYYCAARVYKSQGGLPEYDYWGQGTQVTVSS",
    "Value Reported": "high polyreactivity"
  },
  {
    "Record Sequence": "QVQLVESGGGLVQAGGSLRLSCAASGRIFYGNAMGWYRQAPGKERELVAAISSGTSTNYADSVKGRFTISRDNAKNTVYLEMNRLKPEDTAVYDCAAGSYSRYLYSLYFDFDYWGQGTQVTVSS",
    "Value Reported": "low polyreactivity"
  }
]

All values here come from the nanobody polyreactivity screen of Harvey et al. (2022).
